Source listed as patent US12714696B2.

- assayNotes: Pharmacokinetics after repeated oral administration of 35 μg/kg of fluralaner in dogs after feeding
- Assay type: in vivo, beagle dogs
- conditionSummary: beagle, dog, plasma, po, 35 μg/kg, 120 h; oral 35 μg/kg Days 0-3, dogs, n=6; read-out: fluralaner concentration levels, Maximum
experimentalEndpoint: concentration at 120 h (ng/mL)
Give the quantity in ng/mL, number only.

Inquiry: Provide one value: measured concentration at 120 h of Cc1cc(C2=NOC(c3cc(Cl)cc(Cl)c3)(C(F)(F)F)C2)ccc1C(=O)NCC(=O)NCC(F)(F)F (stereo not shown)
Reply text: 72.3

###

- assayNotes: Pharmacokinetics after repeated oral administration of 250 μg/kg and 35 μg/kg of fluralaner in dogs after feeding
- Assay type: in vivo, beagle dogs
- conditionSummary: beagle, dog, plasma, po, 168 h; oral 250/35/600 μg/kg regimen, dogs, n=6; read-out: fluralaner concentration levels, Maximum
experimentalEndpoint: concentration at 168 h (ng/mL)
Give the quantity in ng/mL, number only.

Inquiry: Provide one value: measured concentration at 168 h of Cc1cc(C2=NOC(c3cc(Cl)cc(Cl)c3)(C(F)(F)F)C2)ccc1C(=O)NCC(=O)NCC(F)(F)F (stereo not shown) [fluralaner, Fluralaner]
Reply text: 580

###

- assayNotes: Pharmacokinetics after repeated oral administration of 250 μg/kg and 35 μg/kg of fluralaner in dogs after feeding
- Type: in vivo, beagle dogs
- conditionSummary: beagle, dog, plasma, po, 168 h; oral 250/35/600 μg/kg regimen, dogs, n=6; read-out: fluralaner concentration levels, Median
- Protocol: The first objective is to obtain the pharmacokinetic parameters after repeated oral administration of […] and 35 μg/kg of fluralaner in dogs after feeding. […] On Days 0, 1, 2 and 3, all dogs assigned to group 2 received the Investigational Veterinary Product. […] The quantity of Investigational Veterinary Product and control product administered was calculated according to the dog's individual body weight measured on Day −1. […] Cmax the observed maximum concentration in plasma measured after dosing. […]
experimentalEndpoint: concentration at 168 h (ng/mL)
Give the quantity in ng/mL, number only.

Inquiry: Provide one value: measured concentration at 168 h of Cc1cc(C2=NOC(c3cc(Cl)cc(Cl)c3)(C(F)(F)F)C2)ccc1C(=O)NCC(=O)NCC(F)(F)F (stereo not shown) [fluralaner, Fluralaner]
Reply text: 520

###

- assayNotes: Pharmacokinetics after repeated oral administration of 250 μg/kg and 35 μg/kg of fluralaner in dogs after feeding
- Assay type: in vivo, beagle dogs
- conditionSummary: beagle, dog, plasma, po, 528 h; oral 250/35/600 μg/kg regimen, dogs, n=6; read-out: fluralaner concentration levels, GeoMean
experimentalEndpoint: concentration at 528 h (ng/mL)
Give the quantity in ng/mL, number only.

Inquiry: Provide one value: measured concentration at 528 h of Cc1cc(C2=NOC(c3cc(Cl)cc(Cl)c3)(C(F)(F)F)C2)ccc1C(=O)NCC(=O)NCC(F)(F)F (stereo not shown)
Reply text: 327

###

- assayNotes: Pharmacokinetics after repeated oral administration of 35 μg/kg of fluralaner in dogs after feeding
- Assay type: in vivo, beagle dogs
- conditionSummary: beagle, dog, plasma, po, 35 μg/kg, 672 h; oral 35 μg/kg Days 0-3, dogs, n=6; read-out: fluralaner concentration levels, Mean
experimentalEndpoint: concentration at 672 h (ng/mL)
Give the quantity in ng/mL, number only.

Inquiry: Provide one value: measured concentration at 672 h of Cc1cc(C2=NOC(c3cc(Cl)cc(Cl)c3)(C(F)(F)F)C2)ccc1C(=O)NCC(=O)NCC(F)(F)F (stereo not shown)
Reply text: 12.8
